All figures here come from ChEMBL document CHEMBL3286254.

Experiment: Cmax in NMRI mouse at 1 mg/kg, sc
Details: in vivo
Measured Cmax of individual entries

>>> result("N=C(N)c1ccc(Oc2cc(NC(=O)[C@H]3CC[C@H](N)CC3)cc(Oc3ccc(C(=N)N)cc3)c2)cc1")
"484 ng/mL"

Now, please, on to the next molecule.
Form: molecule = N=C(N)c1ccc(Oc2cc(Oc3ccc(C(=N)N)cc3)cc(C(=O)N[C@H]3CC[C@H](N)CC3)c2)cc1 ; Cmax = 487 ng/mL

* * *

Assay: Metabolic stability in mouse liver microsomes assessed as compound remaining after 20 mins
Assay type: ADME
Settings: read-out: Stability
Metric: remaining at 20 min (%)
// return numeric value only (unit: %, not printed)

remaining at 20 min measured on N=C(N)c1ccc(Oc2cc(Oc3ccc(C(=N)N)cc3)cc(C(=O)N[C@H]3CC[C@H](N)CC3)c2)cc1 = 81

Note to self: remaining at 20 min recorded for N=C(N)c1ccc(Oc2cc(Oc3ccc(C(=N)N)cc3)cc(C(=O)O[C@H]3CC[C@H](N)CC3)c2)cc1 was 24

remaining at 20 min recorded for this molecule, N=C(N)c1ccc(Oc2cc(NC(=O)[C@H]3CC[C@H](N)CC3)cc(Oc3ccc(C(=N)N)cc3)c2)cc1 , is 83

* * *

Each record here notes measured viability at 10 µM.
System: DU-145
Test: Cytotoxicity against human DU145 cells assessed as cell survival at 10 uM after 72 hrs by calcein AM assay
Assay type: functional
Conditions: DU-145, 72 h, read-out: Activity

Solved entries:
>>> result("N=C(N)c1ccc(Oc2cc(Oc3ccc(CN)cc3)cc(C(=O)N[C@H]3CC[C@H](N)CC3)c2)cc1")
"90%"
>>> result("N=C(N)c1ccc(Oc2cc(NC(=O)C3CCN(C(=O)CCN)CC3)cc(Oc3ccc(C(=N)N)cc3)c2)cc1")
"98%"
>>> result("N=C(N)c1ccc(Oc2cc(OCc3ccc(Br)cc3)cc(C(=O)N[C@H]3CC[C@H](N)CC3)c2)cc1")
"78%"

Okay, now this compound:
viability at 10 µM reported for this compound N=C(N)c1ccc(Oc2cc(Oc3ccc(C(=N)N)cc3)cc(C(=O)N3CCC(CCN)CC3)c2)cc1 : 100%

* * *

Entries and their measured inhibition at 10 µM follow.
Assay: Antiinvasion activity in human LNCaP-C42B4 cells assessed as inhibition of FBS-induced cell invaded to lower surface at 10 uM for 3 days by matrigel assay
Assay type: functional
Conditions: LNCaP-C42B4, 72 h
Please state the value followed by its unit.

Examples with answers:
>>> result("N=C(N)c1ccc(Oc2cc(OCc3ccc(Br)cc3)cc(C(=O)N[C@H]3CC[C@H](N)CC3)c2)cc1")
"76%"
>>> result("N=C(N)c1ccc(Oc2cc(Oc3ccc(C(=N)N)cc3)cc(C(=O)N[C@H]3CC[C@H](N)CC3)c2)cc1")
"84%"
>>> result("N=C(N)c1ccc(Oc2cc(Oc3ccc(CN)cc3)cc(C(=O)N[C@H]3CC[C@H](N)CC3)c2)cc1")
"59%"
>>> result("N=C(N)c1ccc(Oc2cc(Oc3ccc(C(=N)N)cc3)cc(C(=O)O[C@H]3CC[C@H](N)CC3)c2)cc1")
"90%"
>>> result("N=C(N)c1ccc(Oc2cc(NC(=O)[C@H]3CC[C@H](N)CC3)cc(Oc3ccc(C(=N)N)cc3)c2)cc1")
"63%"
>>> result("N=C(N)c1ccc(Oc2cc(Oc3ccc(C(=N)N)cc3)cc(C(=O)N3CCC(CCN)CC3)c2)cc1")
"61%"
>>> result("N=C(N)c1ccc(Oc2cc(Oc3ccc(C(=N)N)cc3)cc(C(=O)N3CCC4CCCCC4C3)c2)cc1 (stereo not drawn)")
"15%"

In the following, a different compound is considered.
According to the records, this compound N=C(N)c1ccc(Oc2cc(NC(=O)C3CCN(C(=O)CCN)CC3)cc(Oc3ccc(C(=N)N)cc3)c2)cc1 displays inhibition at 10 µM of 60%
